Source of measurements: patent US20160176924A1

- tested_on: T1, HIS-PDZ1 protein (PSD-95 PDZ1, residues 61-151, with tag …) (human, UniProt P78352 61-151)
- T1 construct: expressed in E. coli
- measurement_protocol: FP competition, fluorescent NR2B probe
Primed or numbered codes have the meaning given here. Ends that are not written are not given here. * marks the point of attachment. cyclohexylethyl″ = cyclohexylethyl group on the nitrogen (N-alkyl substituent), C1CCC(CC*)CC1; cyclohexylethyl = C1CCC(CC*)CC1
Below, each entry is listed with its recorded log10(Ki).
Plainly stated, the numbers are log10 of Ki given in µM.

Solved cases (3 shown):
| binder | log10(Ki) |
| --- | --- |
| {cyclohexylethyl″}-ATDV-OH (SMILES CC(C)[C@H](NC(=O)[C@H](CC(=O)O)NC(=O)[C@@H](NC(=O)[C@H](C)NCCC1CCCCC1)[C@@H](C)O)C(=O)O) [ATDV (71), N-cyclohexylethyl] | 0.76 |
| cyclohexylethyl-ETAV [N-Cyclohexylethyl-ETAV (56)] | -0.03 |
| cyclohexylethyl-QTAV [QTAV (72), N-cyclohexylethyl] | 1.32 |

Requested field: log10(Ki). Item: {cyclohexylethyl″}-ETDV-OH (SMILES CC(C)[C@H](NC(=O)[C@H](CC(=O)O)NC(=O)[C@@H](NC(=O)[C@H](CCC(=O)O)NCCC1CCCCC1)[C@@H](C)O)C(=O)O) [ETDV (69), N-cyclohexylethyl] 0.26

Which log10(Ki) is reported for this binder? ATDV [ATDV (66)] 1.48
